# System: B6C3F1 mice, B16 melanoma ip, median survival T/C
# TEST_PROTOCOL: NCI In Vivo Anticancer Drug Screen. Data for tumor model B16 Melanoma (intraperitoneal) in B6C3F1 mice
# MEASUREMENT_CONTEXT: endpoint: median survival time; dose: 50.0 mg/kg/injection; schedule: Q01DX009 (ip); vehicle: saline with Tween-80; higher = longer survival
Toxic doses and inconclusive results are not listed.
OBSERVABLE: T/C

Data request, read-out T/C, for COc1cccc(C2NC(=O)c3c(n[nH]c3N)S2)c1O (stereo unspecified)
104 % of control

Fill in: T/C of Cc1ccc(N)c(N)c1 is ___
99 % of control

Cited source for all entries: PubChem BioAssay AID200
